Numbers sourced from the domain aggregation screens of Martell et al. (2025).

assay: soluble fraction after stress (log2 fold change); higher = more stays soluble; pooled small domains, quantitative proteomics; details: stress: 75 degC;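 note: 20 min heating vs room temperature control held 20 min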
measure name: soluble fraction (log2)
Please give only the number in your answer, with no unit.

The examples below pair each entry with its known result.
HMDTNVKLLSPKQADFFASKLANNQNFSSKFAKVGEDMQPFIERISSELQQDISQVIVYMPYLLESGFKQ ... -0.328
HMKSNIIPLSLKKPQRLDIFLTNYFVDLSRTQIKKMITDGNIKVNDLIAKPSLKLIGDEIIFYTLPK ... -1.46

Q: Tell me measured soluble fraction (log2) for HMNSFGWESFVGEKGVTDTDLRPSGWIVIKDKRLFALTEGTFIEKGVSVEILSVEGNRIVVREIS please.
Result: -2.9

Q: Dear colleague, please send me the reported soluble fraction (log2) for HMGEWHQMLRSWGETELKNGRQNILDEAVPAFERAMIETALAHTSGRKKDAALLLGWGRNTLTRKLQEHSI when you can.
Result: -0.169
